Below is a list of entries, each paired with its recorded IC50 value.
- measured on: human thrombin (Homo sapiens, UniProt P00734)
- Construct: solution of human thrombin (a product of SIGMA Co.); purchased SIGMA Co
- test name: Determination of thrombin-inhibiting activity
- Assay type: biochemical
- condition description: negative logarithm of concentration inhibiting 50% of initial rate; substrate S-2238, pH 8.4; read-out: Thrombin-inhibiting activity (pIC50) (converted)

Here are 2 compounds together with their reported answers.
[
  {
    "compound": "CC(=N)N1CCC(Oc2ccc(C(=O)NCCOc3cc4c(N)nccc4cc3CC(=O)C(=O)O)cc2)CC1 [Compound of Ex. 26, bistrifluoroacetate]",
    "measurement": "> 501 µM"
  },
  {
    "compound": "Nc1nccc2ccc(OC[C@@H](CCC(=O)O)NC(=O)c3ccc(C(=O)N4CCCC4)cc3)cc12 [Compound of Ex. 16, mono-trifluoroacetate]",
    "measurement": "> 1000 µM"
  }
]

Shifting focus to the compound that follows.
Query: IC50; subject: Nc1nccc2ccc(OCCNC(=O)c3ccc(C(=O)N4CCCC4)cc3)cc12 [Compound of Ex. 2, mono-trifluoroacetate]
251 µM
